Test system: KY821 (Acute Myeloid Leukemia)
Experiment Description: combination Emax (second highest fraction inhibited in the dose matrix, 72 h); higher = more inhibition; extreme values may be limits of the assay
Property Measured: combination Emax
Answer with a number only.

*Q* // query combination Emax value for entry NC1(C(=O)N[C@@H](CCO)c2ccc(Cl)cc2)CCN(c2ncnc3[nH]ccc23)CC1 [Capivasertib] + C[C@@H]1COCCN1C2=NC(=NC(=C2)C3(CC3)[S@](=N)(=O)C)C4=C5C=CNC5=NC=C4 [AZD6738] (first compound max 10 µM, 7x7, partner max 10 µM)
*A* 1

*Q* // query combination Emax value for entry C[C@@H](c1ccc2nccn2c1)n1nnc2ncc(-c3cnn(C)c3)nc21 [Savolitinib] + CN(CC[C@H](CSC1=CC=CC=C1)NC2=C(C=C(C=C2)S(=O)(=O)NC(=O)C3=CC=C(C=C3)N4CCC(CC4)[C@H](C5=CC=CC=C5C6=CC=C(C=C6)Cl)O)S(=O)(=O)C(F)(F)F)CCO [AZD4320] (first compound max 1 µM, 7x7, partner max 1 µM)
*A* 1

*Q* // query combination Emax value for entry CC(=O)c1c(C)c2cnc(Nc3ccc(N4CCNCC4)cn3)nc2n(C2CCCC2)c1=O [Palbociclib] + Cc1c2c(nn1C)CSCc1cc(n(C)n1)CSc1cc(c3ccccc3c1)OCCCc1c(C(=O)O)n(C)c3c-2c(Cl)ccc13 [AZD5991] (first compound max 10 µM, 7x7, partner max 1 µM)
*A* 1
